Where these numbers come from: patent US20210070881A1

Exercise: state measured pKd for each of the binders provided.
MEASUREMENT_TARGET: T1, recombinant BACE1 (BACE1 extracellular domain, R&D Systems Cat#931-AS) (UniProt P56817 22-457)
T1 construct: extracellular domain; also called BACE1 extracellular domain protein
T1 sequence (P56817 22-457): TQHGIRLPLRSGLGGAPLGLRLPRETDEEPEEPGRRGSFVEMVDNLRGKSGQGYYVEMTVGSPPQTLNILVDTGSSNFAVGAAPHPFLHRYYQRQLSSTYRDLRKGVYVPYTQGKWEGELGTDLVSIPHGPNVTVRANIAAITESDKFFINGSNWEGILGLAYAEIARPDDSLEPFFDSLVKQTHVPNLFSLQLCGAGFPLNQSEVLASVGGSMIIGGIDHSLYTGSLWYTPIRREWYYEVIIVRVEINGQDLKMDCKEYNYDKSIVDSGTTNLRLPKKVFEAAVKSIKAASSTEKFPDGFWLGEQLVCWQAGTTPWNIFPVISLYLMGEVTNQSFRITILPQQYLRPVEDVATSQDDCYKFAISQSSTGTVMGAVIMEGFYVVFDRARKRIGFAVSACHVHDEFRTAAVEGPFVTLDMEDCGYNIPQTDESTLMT
TEST_DETAILS: SPR Biacore
As a rule, pKd stands for the negative log10 of the concentration, concentration in M.

Request: Consider the binder 2H8.21 (antibody, human IgG1, V domains shown, human IgG1/kappa; also called 2H8_HCvar3 + 2H8_LCvar4) VH: EVQLQQSGAELVRPGTSVKLSCKASGYTFTSYWIHWVKQRPGQGLEWIGMIDPSDSYTKYNQKFKDKATLTVDTSSSTTYMHLSSLTSEDSAVYYCARSGVAFPYWGQRTLVTVSA VL: DIVMTQSQKFMSTSVGDRVSITCKASQNVGTNVAWYQQKPGQSPKALIYSASYRYSGVPDRFTGSGSGTDFTLTISNVQSEDLAEYFCQQYNSYPYTFGGGTKLEIK and give its measured pKd.
Response: 7.04

Request: Given the binder 2H8.19 (antibody, human IgG1, V domains shown, human IgG1/kappa; also called 2H8_HC + 2H8_LCvar4) VH: EVQLQQSGPELVKPGASVKLSCKASGYTFTNFWIHWLKQRPGQGLEWIGMIDPSDSYTKYNQKFKAKATLTVDTSSSTTYMHLSSLTSEDSAVYYCARSGVAFPYWGQRTLVTVSA VL: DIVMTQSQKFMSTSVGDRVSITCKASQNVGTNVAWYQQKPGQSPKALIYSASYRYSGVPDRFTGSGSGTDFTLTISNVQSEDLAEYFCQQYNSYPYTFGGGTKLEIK , what is its reported pKd?
Response: 7.37

Request: Which pKd is listed for 2H8.35 (antibody, human IgG1, V domains shown, human IgG1/kappa; also called 2H8_HCvar5 + 2H8_LCvar6) VH: EVQLQQPGAEVVRPGTSVKLSCKASGYTFTNYWMHWVKQRPGQGLEWIGMIDPSDNYTKYNQKLKGKATLTVDTSSSTANMHVNSLTSEDSAVYFCARSGVAFPYWGQGTLVTVSA VL: DIQMTQSQKFMSKSVGDRVSVTCKASQNVGSNVAWYQQKSGQSPKSLIYSASHRYSGVPDRFTGSGSGTDFTLTISNVQSEDLADYFCQQYNSYPYTFGGGTRLEIK ?
Response: 7.82
